Source of measurements: patent US20060211610A1

Target: T1, Y2 receptor (human, UniProt P49146 1-381)
T1 construct: whole, on cells; Assayed as membrane homogenates of SK-N-BE2 cells, not intact cells
T1 sequence (looked up): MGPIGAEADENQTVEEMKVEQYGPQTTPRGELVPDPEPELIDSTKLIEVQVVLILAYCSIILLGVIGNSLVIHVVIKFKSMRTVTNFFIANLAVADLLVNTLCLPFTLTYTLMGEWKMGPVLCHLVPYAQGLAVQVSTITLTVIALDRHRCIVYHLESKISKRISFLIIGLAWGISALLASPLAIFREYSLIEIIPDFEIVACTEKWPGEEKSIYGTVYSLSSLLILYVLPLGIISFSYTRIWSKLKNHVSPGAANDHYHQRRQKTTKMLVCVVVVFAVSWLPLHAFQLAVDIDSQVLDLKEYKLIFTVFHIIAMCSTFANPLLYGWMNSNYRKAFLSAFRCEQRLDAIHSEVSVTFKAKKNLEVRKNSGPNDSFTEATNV
Test: radioligand competition against [125I]PYY(3-36), SK-N-BE2 membranes, Cheng-Prusoff
Non-standard residues stand in square brackets, D forms with d. Ala(4-thiazolyl) = N[C@@H](Cc1cscn1)C(=O)O; 3Pal = N[C@@H](Cc1cccnc1)C(=O)O
The following binders are shown together with reported Ki values.

Ac-LR[3Pal]YLNLLTRQRY-NH2 (SMILES CC(=O)N[C@@H](CC(C)C)C(=O)N[C@@H](CCCNC(=N)N)C(=O)N[C@@H](Cc1cccnc1)C(=O)N[C@@H](Cc1ccc(O)cc1)C(=O)N[C@@H](CC(C)C)C(=O)N[C@@H](CC(N)=O)C(=O)N[C@@H](CC(C)C)C(=O)N[C@@H](CC(C)C)C(=O)N[C@H](C(=O)N[C@@H](CCCNC(=N)N)C(=O)N[C@@H](CCC(N)=O)C(=O)N[C@@H](CCCNC(=N)N)C(=O)N[C@@H](Cc1ccc(O)cc1)C(N)=O)[C@@H](C)O, Also carries Leu at 31 (residue 8 of the peptide), already in the entry) [Ac-(3Pal^26, Leu^31)hPPY(24-36)NH2] :: < 1000 nM

Please examine the following record next.
Exercise: Return reported Ki; argument: Ac-LR[Ala(4-thiazolyl)]YLNLLTRQRY-NH2 (SMILES CC(=O)N[C@@H](CC(C)C)C(=O)N[C@@H](CCCNC(=N)N)C(=O)N[C@@H](Cc1cscn1)C(=O)N[C@@H](Cc1ccc(O)cc1)C(=O)N[C@@H](CC(C)C)C(=O)N[C@@H](CC(N)=O)C(=O)N[C@@H](CC(C)C)C(=O)N[C@@H](CC(C)C)C(=O)N[C@H](C(=O)N[C@@H](CCCNC(=N)N)C(=O)N[C@@H](CCC(N)=O)C(=O)N[C@@H](CCCNC(=N)N)C(=O)N[C@@H](Cc1ccc(O)cc1)C(N)=O)[C@@H](C)O, Also carries Leu at 31 (residue 8 of the peptide), already in the entry) [Ac-(Taz^26, Leu^31)hPPY(24-36)NH2]
Solution: < 1000 nM
